target of assay: Mitogen-activated protein kinase kinase kinase 10 (Homo sapiens, UniProt Q02779)
Sequence (Q02779 whole entry): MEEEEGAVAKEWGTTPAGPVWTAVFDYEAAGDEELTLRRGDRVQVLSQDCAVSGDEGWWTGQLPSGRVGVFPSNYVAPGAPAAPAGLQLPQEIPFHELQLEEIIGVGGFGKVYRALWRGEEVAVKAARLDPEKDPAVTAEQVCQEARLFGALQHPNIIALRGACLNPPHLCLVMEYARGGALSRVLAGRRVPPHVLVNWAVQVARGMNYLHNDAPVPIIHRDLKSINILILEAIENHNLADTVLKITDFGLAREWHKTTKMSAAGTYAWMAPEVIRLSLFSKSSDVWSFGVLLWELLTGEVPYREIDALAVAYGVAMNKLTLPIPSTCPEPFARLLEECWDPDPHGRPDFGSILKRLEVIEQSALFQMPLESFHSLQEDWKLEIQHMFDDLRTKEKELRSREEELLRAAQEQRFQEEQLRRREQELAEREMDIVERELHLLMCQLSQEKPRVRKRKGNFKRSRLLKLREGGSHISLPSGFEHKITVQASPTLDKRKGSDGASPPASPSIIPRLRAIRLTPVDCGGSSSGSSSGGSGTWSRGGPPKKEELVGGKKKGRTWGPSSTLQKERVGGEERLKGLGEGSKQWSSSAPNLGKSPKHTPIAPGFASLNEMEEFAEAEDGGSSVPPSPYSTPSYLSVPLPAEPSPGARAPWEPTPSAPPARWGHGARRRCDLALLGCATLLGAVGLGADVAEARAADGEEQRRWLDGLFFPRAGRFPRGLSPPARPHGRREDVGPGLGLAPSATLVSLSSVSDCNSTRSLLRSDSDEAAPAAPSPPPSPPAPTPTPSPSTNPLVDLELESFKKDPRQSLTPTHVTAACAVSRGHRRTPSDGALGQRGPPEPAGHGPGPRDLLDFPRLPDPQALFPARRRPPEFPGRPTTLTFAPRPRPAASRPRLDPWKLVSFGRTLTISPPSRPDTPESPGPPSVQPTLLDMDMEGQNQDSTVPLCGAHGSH
run description: Inhibition of GST-MLK2
property: IC50 (nM)

Observe how each entry below is paired with its result.
{"structure smiles string": "O=C1NCc2c3c(c4[nH]c5ccccc5c4c21)CCc1ccccc1-3", "IC50, nM": 3450}
{"structure smiles string": "O=C1NC(=O)c2c1c1c(c3[nH]c4ccccc4c23)CCc2ccccc2-1", "IC50, nM": 339}

(a) O=C1NCc2c3c(c4[nH]c5ccccc5c4c21)Cc1ccccc1-3
(b) O=C1NCc2c1c1c(c3[nH]c4ccccc4c23)Cc2ccccc2-1
Decide: a or b , by lowest recorded IC50. Respond with the label that goes with your answer. b
(b: 364 nM, a: 2660 nM)

----------
target of assay: Mitogen-activated protein kinase kinase kinase 9 (Homo sapiens, UniProt P80192)
Sequence (P80192 whole entry): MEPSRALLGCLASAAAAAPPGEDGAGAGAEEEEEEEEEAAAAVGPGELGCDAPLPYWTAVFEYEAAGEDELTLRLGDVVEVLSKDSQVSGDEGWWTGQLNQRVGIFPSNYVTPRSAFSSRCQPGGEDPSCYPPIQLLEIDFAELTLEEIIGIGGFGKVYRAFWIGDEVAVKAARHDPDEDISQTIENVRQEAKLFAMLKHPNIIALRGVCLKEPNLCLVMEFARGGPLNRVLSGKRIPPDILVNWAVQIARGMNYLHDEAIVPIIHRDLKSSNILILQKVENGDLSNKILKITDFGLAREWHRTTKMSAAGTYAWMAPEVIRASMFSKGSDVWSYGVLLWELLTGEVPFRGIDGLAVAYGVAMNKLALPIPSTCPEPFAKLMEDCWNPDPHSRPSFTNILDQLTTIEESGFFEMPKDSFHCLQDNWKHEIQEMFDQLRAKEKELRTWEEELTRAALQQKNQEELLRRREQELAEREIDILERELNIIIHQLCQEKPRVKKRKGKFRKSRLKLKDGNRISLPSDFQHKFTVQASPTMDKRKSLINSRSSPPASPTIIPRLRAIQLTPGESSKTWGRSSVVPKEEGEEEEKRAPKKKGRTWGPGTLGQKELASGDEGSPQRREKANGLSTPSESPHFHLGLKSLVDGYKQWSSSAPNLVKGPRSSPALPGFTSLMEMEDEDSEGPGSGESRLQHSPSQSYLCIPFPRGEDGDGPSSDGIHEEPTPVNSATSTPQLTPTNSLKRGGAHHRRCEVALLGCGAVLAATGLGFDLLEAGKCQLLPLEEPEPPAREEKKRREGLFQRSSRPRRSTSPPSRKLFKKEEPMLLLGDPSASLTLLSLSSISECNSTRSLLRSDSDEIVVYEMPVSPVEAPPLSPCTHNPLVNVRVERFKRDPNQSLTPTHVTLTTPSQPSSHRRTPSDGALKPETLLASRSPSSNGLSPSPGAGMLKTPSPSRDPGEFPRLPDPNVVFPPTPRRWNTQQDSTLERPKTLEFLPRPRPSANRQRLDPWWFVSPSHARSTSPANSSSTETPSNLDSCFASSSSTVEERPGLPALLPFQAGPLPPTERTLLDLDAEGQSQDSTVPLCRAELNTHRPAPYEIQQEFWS
run description: Inhibition of MKK4 phosphorylation in MLK1 transfected CHO cells after 1 hr
Format: functional, cell-based
pIC50: −log10 of the molar value.
property: pIC50

(A) O=C1NCc2c3c(c4[nH]c5ccccc5c4c21)CCc1ccccc1-3
(B) O=C1NC(=O)c2c1c1c(c3[nH]c4ccccc4c23)CCc2ccccc2-1
Larger number for pIC50: A , or B ? Respond with the label that goes with your answer. B
(B: 7.05, A: 6.56)

----------
target of assay: Mitogen-activated protein kinase kinase kinase 11 (Homo sapiens)
Sequence (Q16584 whole entry): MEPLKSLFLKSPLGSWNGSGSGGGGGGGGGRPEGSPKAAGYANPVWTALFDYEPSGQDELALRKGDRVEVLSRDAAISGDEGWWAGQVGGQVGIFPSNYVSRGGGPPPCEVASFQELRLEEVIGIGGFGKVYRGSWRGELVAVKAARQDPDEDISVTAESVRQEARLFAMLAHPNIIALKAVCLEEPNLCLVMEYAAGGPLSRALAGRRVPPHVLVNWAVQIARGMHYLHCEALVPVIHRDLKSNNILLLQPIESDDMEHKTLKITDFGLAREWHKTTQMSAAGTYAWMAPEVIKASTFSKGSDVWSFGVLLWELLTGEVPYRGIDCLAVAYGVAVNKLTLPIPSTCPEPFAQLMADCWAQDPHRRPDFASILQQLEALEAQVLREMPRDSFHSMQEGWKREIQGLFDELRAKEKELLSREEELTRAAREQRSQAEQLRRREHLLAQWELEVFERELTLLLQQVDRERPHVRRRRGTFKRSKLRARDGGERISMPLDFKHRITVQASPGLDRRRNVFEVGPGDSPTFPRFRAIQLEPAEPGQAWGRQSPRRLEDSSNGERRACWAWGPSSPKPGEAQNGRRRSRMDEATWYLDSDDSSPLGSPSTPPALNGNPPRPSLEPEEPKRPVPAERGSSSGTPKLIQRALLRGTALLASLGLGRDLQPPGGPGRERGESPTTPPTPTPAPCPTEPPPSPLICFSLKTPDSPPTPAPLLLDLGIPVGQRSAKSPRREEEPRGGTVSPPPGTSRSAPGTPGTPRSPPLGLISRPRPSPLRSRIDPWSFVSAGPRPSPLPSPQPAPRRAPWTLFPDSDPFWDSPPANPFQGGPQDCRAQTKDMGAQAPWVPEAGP
run description: Inhibition of GST-MLK3 expressed in baculovirus
pIC50: −log10 of the molar value.
property: pIC50

{"compound": "O=C1NC(=O)c2c1c1c(c3[nH]c4ccccc4c23)Cc2ccccc2-1", "pIC50": "< 6.52"}

Form field: pIC50 recorded for O=C1NC(=O)c2c1c1c3ccccc3sc1c1sc3ccccc3c21 with Mitogen-activated protein kinase kinase kinase 11 (Homo sapiens) (enter value) < 6.52

Form field: pIC50 recorded for O=C1NC(=O)c2c1c1c3ccccc3[nH]c1c1sc3ccccc3c21 with Mitogen-activated protein kinase kinase kinase 11 (Homo sapiens) (enter value) 7.24

Form field: pIC50 recorded for O=C1NCc2c1c1c3ccccc3sc1c1sc3ccccc3c21 with Mitogen-activated protein kinase kinase kinase 11 (Homo sapiens) (enter value) < 5.00

Form field: pIC50 recorded for O=C1NC(=O)c2c1c1c(c3sc4ccccc4c23)Cc2ccccc2-1 with Mitogen-activated protein kinase kinase kinase 11 (Homo sapiens) (enter value) < 6.52

Form field: pIC50 recorded for O=C1NC(=O)c2c1c1c3ccccc3ccc1c1[nH]c3ccccc3c21 with Mitogen-activated protein kinase kinase kinase 11 (Homo sapiens) (enter value) 6.52

----------
target of assay: Choline O-acetyltransferase (Rattus norvegicus)
Sequence (whole entry): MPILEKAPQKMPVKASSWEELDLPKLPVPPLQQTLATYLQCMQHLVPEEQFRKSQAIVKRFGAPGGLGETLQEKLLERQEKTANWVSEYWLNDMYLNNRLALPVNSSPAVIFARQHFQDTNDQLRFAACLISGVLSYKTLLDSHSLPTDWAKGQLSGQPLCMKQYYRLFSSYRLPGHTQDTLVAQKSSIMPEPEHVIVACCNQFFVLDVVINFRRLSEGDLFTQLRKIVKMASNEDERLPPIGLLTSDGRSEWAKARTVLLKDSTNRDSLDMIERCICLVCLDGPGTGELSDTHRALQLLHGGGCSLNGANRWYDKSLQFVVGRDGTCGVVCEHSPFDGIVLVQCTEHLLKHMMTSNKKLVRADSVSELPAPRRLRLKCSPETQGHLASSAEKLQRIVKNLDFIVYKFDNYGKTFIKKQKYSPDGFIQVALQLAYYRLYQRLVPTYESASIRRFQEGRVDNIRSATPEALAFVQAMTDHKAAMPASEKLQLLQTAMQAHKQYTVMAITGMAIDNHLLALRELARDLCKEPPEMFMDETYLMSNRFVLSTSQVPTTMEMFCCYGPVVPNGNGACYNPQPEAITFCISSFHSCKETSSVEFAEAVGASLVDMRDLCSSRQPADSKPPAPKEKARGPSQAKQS
run description: Enhancement of choline acetyltransferase activity in embryonic rat spinal cord at 300 nM
Activity calls are given as the source filed them. No cut-off for these calls is given here.

{"structure smiles string": "O=C1NCc2c1c1c3ccccc3sc1c1sc3ccccc3c21", "target of assay": "Choline O-acetyltransferase (Rattus norvegicus)", "Activity": "inactive"}
{"structure smiles string": "O=C1NC(=O)c2c1c1c(c3c2-c2ccccc2C3)Cc2ccccc2-1", "target of assay": "Choline O-acetyltransferase (Rattus norvegicus)", "Activity": "inactive"}
{"structure smiles string": "O=C1NCc2c1c1c(c3[nH]c4ccccc4c23)Cc2ccccc2-1", "target of assay": "Choline O-acetyltransferase (Rattus norvegicus)", "Activity": "152%"}
